These entries and their values trace back to ChEMBL document CHEMBL3867482.

# test_method_notes: Kinetic solubility of compound
# Format: physicochemical
# condition_info: read-out: Kinetic_solubility
measurement_kind: solubility kinetic

Some compounds with known solubility kinetic results, for comparison:
INSERT INTO assay_data (chemical_structure, val) VALUES
  ('Cl.O=S(=O)(CC[C@@H]1OCC[C@@]2(S(=O)(=O)c3ccc(Cl)cc3)c3c(F)ccc(F)c3OC[C@@H]12)C[C@@H]1CCCN1', '≥ 200 µM'),
  ('Cl.O=S(=O)(CC[C@@H]1OCC[C@@]2(S(=O)(=O)c3ccc(Cl)cc3)c3c(F)ccc(F)c3OC[C@@H]12)[C@@H]1CCNC1', '≥ 200 µM'),
  ('CNC(C)(C)CCS(=O)(=O)CC[C@@H]1OCC[C@@]2(S(=O)(=O)c3ccc(Cl)cc3)c3c(F)ccc(F)c3OC[C@@H]12', '> 20 µM'),
  ('O=C(O)CS(=O)(=O)CC[C@@H]1OCC[C@@]2(S(=O)(=O)c3ccc(Cl)cc3)c3c(F)ccc(F)c3OC[C@@H]12', '> 200 µM');

Lookup: Entry Cl.O=S(=O)(CC[C@@H]1OCC[C@@]2(S(=O)(=O)c3ccc(Cl)cc3)c3c(F)ccc(F)c3OC[C@@H]12)[C@H]1CCNC1 has what solubility kinetic?
Found: ≥ 200 µM

Lookup: Data request, read-out solubility kinetic, for CN(C)CCS(=O)(=O)CC[C@@H]1OCC[C@@]2(S(=O)(=O)c3ccc(Cl)cc3)c3c(F)ccc(F)c3OC[C@@H]12
Found: 50 µM

Lookup: Looking for the measured solubility kinetic of Cl.O=S(=O)(CC[C@@H]1OCC[C@@]2(S(=O)(=O)c3ccc(Cl)cc3)c3c(F)ccc(F)c3OC[C@@H]12)C[C@H]1CCCN1 , can you help?
Found: ≥ 200 µM

Lookup: What value of solubility kinetic has been reported for the following compound? Cl.O=S(=O)(CC[C@@H]1OCC[C@@]2(S(=O)(=O)c3ccc(Cl)cc3)c3c(F)ccc(F)c3OC[C@@H]12)C1CNC1
Found: > 200 µM

Lookup: Tell me the measured solubility kinetic of O=S(=O)(CC[C@@H]1OCC[C@@]2(S(=O)(=O)c3ccc(Cl)cc3)c3c(F)ccc(F)c3OC[C@@H]12)CC1=NCCN1 , please.
Found: 20 µM

Lookup: Record request: solubility kinetic value, item CNCCS(=O)(=O)CC[C@@H]1OCC[C@@]2(S(=O)(=O)c3ccc(Cl)cc3)c3c(F)ccc(F)c3OC[C@@H]12.Cl
Found: ≥ 200 µM

Lookup: For the compound O=S(=O)(CCO)CC[C@@H]1OCC[C@@]2(S(=O)(=O)c3ccc(Cl)cc3)c3c(F)ccc(F)c3OC[C@@H]12 , what solubility kinetic is on record?
Found: > 200 µM

Lookup: Need solubility kinetic, item Cl.NCCS(=O)(=O)CC[C@@H]1OCC[C@@]2(S(=O)(=O)c3ccc(Cl)cc3)c3c(F)ccc(F)c3OC[C@@H]12
Found: ≥ 200 µM

Lookup: Please give the measured solubility kinetic for this compound: O=S(=O)(CC[C@@H]1OCC[C@@]2(S(=O)(=O)c3ccc(Cl)cc3)c3c(F)ccc(F)c3OC[C@@H]12)CCN1CCNCC1
Found: 200 µM

Lookup: Please report the recorded solubility kinetic for CCNCCS(=O)(=O)CC[C@@H]1OCC[C@@]2(S(=O)(=O)c3ccc(Cl)cc3)c3c(F)ccc(F)c3OC[C@@H]12.Cl .
Found: ≥ 200 µM

====

# test_method_notes: Inhibition of gamma-secretase in HEK293 cell membranes expressing human APP Swedish/London double mutant assessed as reduction in amyloid beta 40 formation after 1 hr by electrochemiluminescence based immunoassay
measurement_kind: IC50 (nM)

INSERT INTO results (chemical_structure, unit_text, val) VALUES
  ('O=S(=O)(CC[C@@H]1OCC[C@@]2(S(=O)(=O)c3ccc(Cl)cc3)c3c(F)ccc(F)c3OC[C@@H]12)[C@H]1CCNC1', 'nM', 1.4);

[A] O=S(=O)(CC[C@@H]1OCC[C@@]2(S(=O)(=O)c3ccc(Cl)cc3)c3c(F)ccc(F)c3OC[C@@H]12)CC1=NCCN1
[B] O=S(=O)(CC[C@@H]1OCC[C@@]2(S(=O)(=O)c3ccc(Cl)cc3)c3c(F)ccc(F)c3OC[C@@H]12)CCN1CCCC1
[C] O=S(=O)(CCNC1CCC1)CC[C@@H]1OCC[C@@]2(S(=O)(=O)c3ccc(Cl)cc3)c3c(F)ccc(F)c3OC[C@@H]12
Lookup: Number of compounds to sort: 3. Sort criterion: IC50, ascending. In your reply, arrange the labels in the requested order.
Found: B, C, A

[P] O=S(=O)(CCO)CC[C@@H]1OCC[C@@]2(S(=O)(=O)c3ccc(Cl)cc3)c3c(F)ccc(F)c3OC[C@@H]12
[Q] O=C(O)CS(=O)(=O)CC[C@@H]1OCC[C@@]2(S(=O)(=O)c3ccc(Cl)cc3)c3c(F)ccc(F)c3OC[C@@H]12
Lookup: Field: entry with larger IC50 (options P / Q ). Indicate your choice by writing its label.
Found: Q

====

Recorded IC50, one value per entry.
# target_desc: Cytochrome P450 3A4 (Homo sapiens, UniProt P08684)
# Sequence (P08684 whole entry): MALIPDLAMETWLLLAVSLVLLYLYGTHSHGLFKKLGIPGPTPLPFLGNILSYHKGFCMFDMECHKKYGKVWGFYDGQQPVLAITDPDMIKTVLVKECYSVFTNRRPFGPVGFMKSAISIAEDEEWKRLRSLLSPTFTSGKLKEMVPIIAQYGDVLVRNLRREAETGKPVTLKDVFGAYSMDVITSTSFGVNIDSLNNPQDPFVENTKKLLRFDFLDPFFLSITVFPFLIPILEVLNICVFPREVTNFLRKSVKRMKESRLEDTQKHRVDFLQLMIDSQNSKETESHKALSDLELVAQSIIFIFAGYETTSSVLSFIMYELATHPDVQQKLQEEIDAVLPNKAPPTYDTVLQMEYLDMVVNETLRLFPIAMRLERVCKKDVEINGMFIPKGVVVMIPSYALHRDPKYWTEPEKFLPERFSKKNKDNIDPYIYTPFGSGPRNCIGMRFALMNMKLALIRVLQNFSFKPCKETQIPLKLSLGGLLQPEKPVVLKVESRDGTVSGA
# test_method_notes: Inhibition of CYP3A4 in human liver microsomes after 30 secs by LC/MS/MS analysis
# Type: ADME

INSERT INTO assay_data (chemical_structure, measurement_kind, val) VALUES
  ('NCCS(=O)(=O)CC[C@@H]1OCC[C@@]2(S(=O)(=O)c3ccc(Cl)cc3)c3c(F)ccc(F)c3OC[C@@H]12', 'IC50', '15.1 µM'),
  ('O=S(=O)(CC[C@@H]1OCC[C@@]2(S(=O)(=O)c3ccc(Cl)cc3)c3c(F)ccc(F)c3OC[C@@H]12)C[C@H]1CCCN1', 'IC50', '> 20 µM'),
  ('O=S(=O)(CC[C@@H]1OCC[C@@]2(S(=O)(=O)c3ccc(Cl)cc3)c3c(F)ccc(F)c3OC[C@@H]12)CC1=NCCN1', 'IC50', '13.2 µM'),
  ('CCNCCS(=O)(=O)CC[C@@H]1OCC[C@@]2(S(=O)(=O)c3ccc(Cl)cc3)c3c(F)ccc(F)c3OC[C@@H]12', 'IC50', '> 20 µM');

Lookup: What value of IC50 has been recorded for this entry: O=S(=O)(CC[C@@H]1OCC[C@@]2(S(=O)(=O)c3ccc(Cl)cc3)c3c(F)ccc(F)c3OC[C@@H]12)C[C@@H]1CCCN1
Found: > 20 µM

====

# target_desc: UniProt P08684
# test_method_notes: Inhibition of CYP3A4 in human liver microsomes preincubated for 30 mins after 30 secs by LC/MS/MS analysis
# Type: ADME
pIC50: −log10 of the molar value.
measurement_kind: pIC50

Use these answered entries as a reference point.
INSERT INTO results (chemical_structure, target_desc, val) VALUES
  ('O=S(=O)(CC[C@@H]1OCC[C@@]2(S(=O)(=O)c3ccc(Cl)cc3)c3c(F)ccc(F)c3OC[C@@H]12)[C@@H]1CCNC1', 'UniProt P08684', 5.43),
  ('CN(C)CCS(=O)(=O)CC[C@@H]1OCC[C@@]2(S(=O)(=O)c3ccc(Cl)cc3)c3c(F)ccc(F)c3OC[C@@H]12', 'UniProt P08684', 5.05),
  ('CNCCS(=O)(=O)CC[C@@H]1OCC[C@@]2(S(=O)(=O)c3ccc(Cl)cc3)c3c(F)ccc(F)c3OC[C@@H]12', 'UniProt P08684', 5.08),
  ('O=S(=O)(CC[C@@H]1OCC[C@@]2(S(=O)(=O)c3ccc(Cl)cc3)c3c(F)ccc(F)c3OC[C@@H]12)[C@H]1CCNC1', 'UniProt P08684', 6.00),
  ('O=S(=O)(CC[C@@H]1OCC[C@@]2(S(=O)(=O)c3ccc(Cl)cc3)c3c(F)ccc(F)c3OC[C@@H]12)C[C@@H]1CCCN1', 'UniProt P08684', 6.00);

[I] NCCS(=O)(=O)CC[C@@H]1OCC[C@@]2(S(=O)(=O)c3ccc(Cl)cc3)c3c(F)ccc(F)c3OC[C@@H]12
[II] O=S(=O)(CC[C@@H]1OCC[C@@]2(S(=O)(=O)c3ccc(Cl)cc3)c3c(F)ccc(F)c3OC[C@@H]12)CC1=NCCN1
Lookup: Which of these two has the smaller recorded pIC50: I or II ? Mark your selection by writing its label.
Found: I

====

# test_method_notes: AUC (0 to 6 hrs) in mouse at 10 mg/kg, po by LC/MS/MS analysis
# Format: ADME, organism-based
# Design: time < 6 hr, dose 10 mg/kg, route oral
# condition_info: in vivo
measurement_kind: AUC(0-t) at 6 h (µM·h)

[1] O=S(=O)(CC[C@@H]1OCC[C@@]2(S(=O)(=O)c3ccc(Cl)cc3)c3c(F)ccc(F)c3OC[C@@H]12)CC1=NCCN1
[2] NCCS(=O)(=O)CC[C@@H]1OCC[C@@]2(S(=O)(=O)c3ccc(Cl)cc3)c3c(F)ccc(F)c3OC[C@@H]12
Lookup: Of 1 versus 2 , which is the one with smaller reported AUC(0-t) at 6 h? Kindly give the label for the entry you pick.
Found: 1
(1: 0.057 µM·h, 2: 0.582 µM·h)
